- experimental_protocol: Toxicity liver stage against HepG2, at 10uM
- Assay type: cell-based
- Set-up: test concentration 10 uM, cell line HepG2-A16-CD81EGFP
- test_conditions: human, HepG2-A16-CD81EGFP cells; read-out: INHIBITION
assay_readout: cytotoxicity at 10 µM (%)
Write the value in % as a bare number.

Need cytotoxicity at 10 µM of CN(C)C(=O)CN1CCC2(CC1)C[C@@H](O)[C@H](c1ccccc1)NC2=O , thanks.
-22.4

Fill in the blank: the reported cytotoxicity at 10 µM of COc1ccc(-c2ccc(C(=O)N3CCC[C@@H]3CO)o2)cc1 is ____.
7.44

Which cytotoxicity at 10 µM reading was recorded for the molecule COC(C)(CNS(=O)(=O)c1cn(C)cn1)c1ccccc1F (stereo not drawn) ?
-8.39

# cytotoxicity at 10 µM lookup, item CCN(CCn1cccn1)Cc1nc(-c2ccc(C)o2)oc1C
-4.7

Could you share which cytotoxicity at 10 µM value was measured for CCCc1nc(NCCc2ccccc2)c2c(n1)c(C)nn2CC ?
20

Requested read-out: cytotoxicity at 10 µM. Entry: CCCOC1Sc2nnc(C)n2N=C1c1ccccc1 (stereo not drawn)
1.57

Look at this molecule and give its reported cytotoxicity at 10 µM. Cc1ccc(N2CCCC(NCc3cccs3)C2)nn1 (stereo not drawn)
-33

// returns reported cytotoxicity at 10 µM for input CN(C)c1ncccc1CNC(=O)N1CCCC1c1cccs1 (stereo not drawn)
-12

Given CC(C)CC(=O)N1C[C@@H]2CCN(c3cnccn3)C[C@@H]2C1 , state its recorded cytotoxicity at 10 µM.
3.44

GET /values?readout=cytotoxicity at 10 µM&item= O=C(O)[C@H]1OCC(=O)N(Cc2cccc(F)c2)[C@@H]1c1ccc(Cl)cc1
8.9

Which value of cytotoxicity at 10 µM has been reported for CSCC[C@H](NC(C)=O)c1nc(Cc2ccccc2)n[nH]1 in the records?
5.06

Would you mind telling me what cytotoxicity at 10 µM value was observed for C[C@@H]1CN(Cc2nc(C(N)=O)no2)CC[C@@]1(O)C1CC1 ?
-50.3

cytotoxicity at 10 µM lookup needed for COc1cccc(C2CCCN2C(=O)c2cc3c(nc2OC)CCC3)c1 (stereo not drawn) , thanks.
-10.2

Requested field: cytotoxicity at 10 µM. Item: Fc1ccc(-c2nnc(CN3CCOC(Cn4cncn4)C3)o2)cc1 (stereo not drawn)
-5.97

Requested read-out: cytotoxicity at 10 µM. Entry: CC(O)CN1CCN(C(=O)c2cc3ccccc3n2C)CC1 (stereo not drawn)
2.99

Find the recorded cytotoxicity at 10 µM belonging to COc1ccc(-c2cc(C(=O)NCCn3ccnc3)n(C)n2)cc1 and report it.
3.86

Report cytotoxicity at 10 µM for CN1CCN(C2CCN(CCOc3ccccc3F)CC2)C1=O please.
0.174

Consider the molecule Cc1cc(NCCNc2ncccc2C)n2nc(C)cc2n1 and give its measured cytotoxicity at 10 µM.
2.41

Need cytotoxicity at 10 µM of O=C(NCCCn1cncn1)N1CCCCCC1 , thanks.
-7.1

Would you mind telling me what cytotoxicity at 10 µM value was observed for Cc1ncccc1NC(=O)c1nc2c(n1C)CCN(C(=O)C1CC1)C2 ?
-99.6

State the recorded cytotoxicity at 10 µM for this entry: COCC1CN(C(=O)c2ccccn2)Cc2nccn2C1 (stereo not drawn)
8.62

Look up cytotoxicity at 10 µM: CN1CCC2(CCN(c3ncc(F)cn3)CC2)C1=O
0.411

So what's the measured cytotoxicity at 10 µM for this one? Cn1ncc(C(=O)OCC2CCN(c3ccccc3)C2)c1C(F)F (stereo not drawn)
-5.44

May I ask what cytotoxicity at 10 µM has been recorded for CN(CC(F)(F)F)C(=O)CN1CCC(c2cc3ccccc3[nH]2)CC1 ?
4.93

Consider the molecule COCCN1CCN(CC(O)c2cc(OC)ccc2OC)CC1 (stereo not drawn) and give its measured cytotoxicity at 10 µM.
3

// cytotoxicity at 10 µM lookup, key: Cc1ccccc1CN1CCN(Cc2nccn2C)CC1
-10.1

// returns reported cytotoxicity at 10 µM for input Cc1noc(C(C)N2CCN(CCc3ccncc3)CC2)n1 (stereo not drawn)
2.67

Request the reported cytotoxicity at 10 µM associated with CCn1cc(CN2CCCN(C(=O)c3ccn(C)c(=O)c3)CC2)cn1
-0.794

# cytotoxicity at 10 µM lookup, item CCc1ncc2c(n1)CN(Cc1ncc(C(C)(C)C)o1)CC2
-15.9

Dear colleague, I am looking for the recorded cytotoxicity at 10 µM of the following molecule: Cc1cnn(CC(C)NCc2cc(=O)n3ccccc3n2)c1 (stereo not drawn)
-5.3

Sample CC(C)(C)c1ccc2c(c1)CCN2C(=O)c1nc(=O)[nH][nH]1 — what was its cytotoxicity at 10 µM?
-3.74

Item under review: COCc1ccccc1C(=O)NS(=O)(=O)CCCC#N . Reported cytotoxicity at 10 µM?
5.24

Report cytotoxicity at 10 µM for Cn1ncc2c1CCCC2NCc1ccc(OCc2cccnc2)cc1 (stereo not drawn) please.
4.13

Give the measured cytotoxicity at 10 µM of COCC(=O)N1CCCCC1c1ccnc(Nc2cnccn2)n1 (stereo not drawn) .
-24.1

Entry CCC(C)Oc1cc(C(=O)Nc2nnc(C(C)C)[nH]2)ccn1 (stereo not drawn) has what cytotoxicity at 10 µM?
-11.2

# get_value(readout='cytotoxicity at 10 µM', item= Cc1ccc(C(=O)N2CCCCC2CNC(N)=O)cc1F (stereo not drawn) )
-6.56

So what's the measured cytotoxicity at 10 µM for this one? Cc1cc(C(=O)N2CCCC3(COCCN(c4ncccn4)C3)C2)[nH]n1 (stereo not drawn)
-3.58

Endpoint output: cytotoxicity at 10 µM of Cc1cccc(CN2C(=O)CCC23CCN(Cc2ccoc2)CC3)n1 . Value?
2.82

Suppose we examine the molecule c1ccc(N2CCCC3(COCCN(c4nccs4)C3)C2)nc1 (stereo not drawn) ; what cytotoxicity at 10 µM value has been reported?
-8.89

// returns reported cytotoxicity at 10 µM for input C[C@@H]1CN(Cc2cc3ccccc3n2C)CC[C@@]1(O)C1CC1
-2.07

// lookup cytotoxicity at 10 µM for CO[C@@H]1CCN(C2CCOCC2)C[C@@H]1Cc1ccccc1
-4.87

What cytotoxicity at 10 µM value was documented for this molecule, COc1cccc(S(=O)(=O)NC(=O)CCC2CCCC2)c1 ?
0.428

Record request: cytotoxicity at 10 µM value, item Cc1cc2n(n1)CC(CNC1CCN(CCc3ccccc3)CC1)CN2 (stereo not drawn)
2.7

For the molecule shown here, c1cc(CN2CCO[C@H]3[C@H](OCCN4CCCC4)CC[C@@H]32)co1 , give the reported cytotoxicity at 10 µM.
6.49

Suppose we examine the molecule COc1cccc(NC(=O)NCC(C)(O)CCSC)c1OC (stereo not drawn) ; what cytotoxicity at 10 µM value has been reported?
0.253

# get_value(readout='cytotoxicity at 10 µM', item= Cc1nc(C2NC3(CCCC3)C(=O)N2CC2CC2)cs1 (stereo not drawn) )
-6.09

I have this molecule here, CSCCC1c2nc[nH]c2CCN1Cc1[nH]c2ccc(F)cc2c1C (stereo not drawn) , and I need its recorded cytotoxicity at 10 µM.
-5.65

Look at this molecule and give its reported cytotoxicity at 10 µM. CCC(CCNC(=O)c1cc(C2CC2)nc2c1cnn2C)n1cccn1 (stereo not drawn)
2.04
